Experiment: yeast display, Sf9 membrane polyspecificity reagent, FACS + sequencing; frameworks hold sequencing errors
outcome measure: polyreactivity (PSR sort gate)

Below: 5 sequences and their reported polyreactivity (PSR sort gate).
sequence | polyreactivity (PSR sort gate)
QFQIVESGGGLVQAGGSLRLSCDASGSIFTWYAMGWYRQAPGKERELVAAITRGGSTYADSVKGRFTISRDNAKNSVYLQMNSLKPEDTAVYYCNAVYGVYDFNYWGQGTQVTVSP | low polyreactivity
QVQLVESGGGLVQAGGSLRLSCAASGIIFAYYAMGWYRQAPGKERELVGTNYADSVKGRFTISRDNAKNTVYLQMNSLKPEDTAVYYCNTEWTSLSKSSLGGRYDHWGQGTQVTVSS | low polyreactivity
QVQLVESVGGLVQAGASLPLSCAASGRIFPYYAMGWYRQAPGKESEFVAAITKRGGSTSYADSVKGRFTISRDNAKNTVYLQMNSLKPEDTAVYYCAARRGSGFFTYYGGAFWGQGTLVTVSS | low polyreactivity
QVQLVESGGGLVQAGGSLRLSCAASGRIFRYNAMGWYRQAPGKERELVAAITWRGGSTYYADSVKGRFTISRDNAKNTVYLQMNSLKPEDTAVYYCNKVYSLTFEYDYWGQGTQVTVSS | high polyreactivity
QVQLVESGGGLIQAGGSLRLSCAASGSILSDYVMAWYRQAPGKERELVAAITNDDSTNYADSVKGRFTISRDNAKNTVYLQMNSLKPEETAVYYCAAEWLVVYYISTGESYKVEFDYCGQGTQVTVSS | low polyreactivity

For each of the sequences below, note its polyreactivity (PSR sort gate).
1. QVQLAESGGGLVQAGGSLRLSCAASGRIFAFYAMGWYRQAPGKERELVAIISSAGRPYYADSVKGRFTISRDNAKYTVYLQMNSLKREDTAVYYCAAGGRARTYYYWGQGTQVTVSS
2. QVQLVESGGGLVQAGGSLRLTCAASGRIFNYYAMGWYRQAPGKEREFVAAITRSGGRTYYADSVKGRFTISRDNAKNTVYLQMNSLKPEDTAVYYCAAPYGTYAYDYWGQGTQVTVSS
3. QVHLVESGGGLVQAGGSLRLSCAASGRTFVYNSMGWYRQAPGKERELVAAISSDGASTYYADSVKGRFTISRDNAKNTVYLQMNSLKPEDTAVYYCAADFSYYSYEHYYWGQGTQVTVSS
4. QVQLVESGGGLVQAGGSLRLSCAASGFIFRRNAMGWYRQAPGKERELVAAISRTGGSTYYADCVKGRFTISRDNAKNTDYLQMNSLKPEDTAVYYCARYGLVYALGYWGQGTQVTVSS
5. QVQLVESGGGLVQAGGSLRLSCAASGSTFAEYVMGWYRQAPGKERELVAAISSGTSTYYADSVKGRFTISRDNAKNTVYLQMNSLKPEDTAVYYCNDDLYHTWYKPEYDYWGQGTQVTVSS

high polyreactivity
high polyreactivity
low polyreactivity
high polyreactivity
low polyreactivity

# input sequence: QVQLVESGGGLVQAGGSLRLSCAASGSTFRYNAMGWYIQAPGKERELVAAITSTGDSTYYADSVKGRFTISRDNAKNTVYLQMNSLKPEYTAVYYCAARSYASPGWRYEYWGQGTQVTVSS ; wanted: its polyreactivity (PSR sort gate)
low polyreactivity
